All values here come from patent US20180162947A1.

target: T1, recombinant human CSF-1R (form not stated) (human, UniProt P07333 20-512, limits assumed); assay: BIAcore, mean of 3 (fourth row, unlabelled)
T1 construct: for the ELISA no species is stated; also called recombinant CSF-1R; recombinant CSF-1R protein
T1 sequence (P07333 20-512 limits assumed): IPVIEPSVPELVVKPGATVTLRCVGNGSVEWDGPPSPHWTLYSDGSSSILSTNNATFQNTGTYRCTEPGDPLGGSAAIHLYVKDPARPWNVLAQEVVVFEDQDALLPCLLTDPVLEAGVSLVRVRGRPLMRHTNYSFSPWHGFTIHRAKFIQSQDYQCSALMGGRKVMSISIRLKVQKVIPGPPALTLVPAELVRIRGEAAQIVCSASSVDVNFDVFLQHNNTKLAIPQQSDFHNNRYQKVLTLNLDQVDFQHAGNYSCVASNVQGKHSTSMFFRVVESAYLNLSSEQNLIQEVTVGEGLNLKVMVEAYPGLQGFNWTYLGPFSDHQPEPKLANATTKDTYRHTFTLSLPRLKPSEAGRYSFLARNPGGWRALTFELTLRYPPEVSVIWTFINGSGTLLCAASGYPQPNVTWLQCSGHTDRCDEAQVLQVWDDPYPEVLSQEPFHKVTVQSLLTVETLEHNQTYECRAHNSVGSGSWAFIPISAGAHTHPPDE
Measured pKd, listed per entry.
Answer as the number alone; pKd is minus log10 of concentration in mol/L.

Known pKd results, listed for orientation:
Qu. Could you tell me which pKd is on file for 969gH1gL1 (antibody, human IgG4 S228P, kappa, name in Kabat numbering, V domains shown, Humanised IgG4 (S241P)/kappa; positions are Kabat; also called Ab969.g1) VH: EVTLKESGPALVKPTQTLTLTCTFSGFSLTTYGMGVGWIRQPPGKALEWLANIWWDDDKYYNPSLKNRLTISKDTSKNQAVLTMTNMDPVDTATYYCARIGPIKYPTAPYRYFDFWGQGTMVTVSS VL: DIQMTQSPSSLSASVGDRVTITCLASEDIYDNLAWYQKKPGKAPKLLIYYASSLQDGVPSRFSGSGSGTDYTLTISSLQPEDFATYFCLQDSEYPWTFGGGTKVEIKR ?
Ans. 11.49

Qu. 969gH2gL1 (antibody, human IgG4 S228P, kappa, name in Kabat numbering, V domains shown, Humanised IgG4 (S241P)/kappa; positions are Kabat; also called Ab969.g6) VH: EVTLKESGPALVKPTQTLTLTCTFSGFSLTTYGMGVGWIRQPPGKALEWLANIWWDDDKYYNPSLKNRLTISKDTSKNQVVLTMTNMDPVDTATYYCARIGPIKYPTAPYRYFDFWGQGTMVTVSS VL: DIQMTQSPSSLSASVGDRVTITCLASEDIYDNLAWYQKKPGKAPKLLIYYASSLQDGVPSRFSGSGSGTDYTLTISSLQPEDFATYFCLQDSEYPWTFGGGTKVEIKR , same question.
Ans. 11.48

Qu. 969gH2gL8 (antibody, human IgG4 S228P, kappa, name in Kabat numbering, V domains shown, Humanised IgG4 (S241P)/kappa, no donor residues; position is Kabat; also called Ab969.g4) VH: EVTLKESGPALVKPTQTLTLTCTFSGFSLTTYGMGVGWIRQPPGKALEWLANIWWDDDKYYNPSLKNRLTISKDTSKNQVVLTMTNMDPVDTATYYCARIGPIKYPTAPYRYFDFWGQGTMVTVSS VL: DIQMTQSPSSLSASVGDRVTITCLASEDIYDNLAWYQQKPGKAPKLLIYYASSLQDGVPSRFSGSGSGTDFTLTISSLQPEDFATYYCLQDSEYPWTFGGGTKVEIKR , same question.
Ans. 11.55

Please look at the following binder next.
Qu. Could you tell me which pKd is on file for chimeric antibody 969 (rat variable regions, human gamma-4 heavy chain constant region and human kappa chain constant region) (antibody, human IgG4, V domains shown, Alexa-488 label in the cell-based affinity assay; not carried by the letters., Full-length human IgG4 (S241P)/kappa chimeric; also called Ab969) VH: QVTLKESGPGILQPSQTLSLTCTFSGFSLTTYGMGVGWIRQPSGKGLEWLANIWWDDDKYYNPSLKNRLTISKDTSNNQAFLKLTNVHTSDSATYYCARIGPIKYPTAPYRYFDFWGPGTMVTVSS VL: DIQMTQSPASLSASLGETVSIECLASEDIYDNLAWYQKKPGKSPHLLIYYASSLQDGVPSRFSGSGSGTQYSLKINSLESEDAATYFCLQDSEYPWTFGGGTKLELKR ?
Ans. 11.43
